Recorded pIC50, one value per entry.
- Test system: THLE2 normal liver cells
- methodDescription: MTT cytotoxicity assay against THLE2 cells
- Assay type: cell-based
- condition: Homo sapiens, THLE-2, MTT assay, 48 h, n = 3, read-out: IC50 ± SD THLE2
pIC50: −log10 of the molar value.

>  <molecule>
O=C(c1ccc2ccccc2c1)c1cn(-c2ccccc2)nc1-c1csc(N/N=C\c2ccccc2OCCOc2ccccc2/C=N\Nc2nc(-c3nn(-c4ccccc4)cc3C(=O)c3ccc4ccccc4c3)cs2)n1 [Compound 21a]

>  <pIC50>
≤ 4.30

$$$$
>  <molecule>
O=C(c1ccc2ccccc2c1)c1cn(-c2ccccc2)nc1-c1csc(N/N=C/c2ccc(OCCCCOc3ccc(/C=N/Nc4nc(-c5nn(-c6ccccc6)cc5C(=O)c5ccc6ccccc6c5)cs4)cc3)cc2)n1 [Compound 18c]

>  <pIC50>
≤ 4.30

$$$$
>  <molecule>
CC(=NNc1nc(-c2nn(-c3ccccc3)cc2C(=O)c2ccc3ccccc3c2)cs1)c1nc2ccccc2s1

>  <pIC50>
≤ 4.30

$$$$
>  <molecule>
CS(=O)(=O)CCNCc1ccc(-c2ccc3ncnc(Nc4ccc(OCc5cccc(F)c5)c(Cl)c4)c3c2)o1 [Lapatinib, reference compound]

>  <pIC50>
≤ 4.30

$$$$
>  <molecule>
CC(=NNc1nc(-c2nn(-c3ccccc3)cc2C(=O)c2ccc3ccccc3c2)cs1)c1cc2ccccc2oc1=O

>  <pIC50>
4.40

$$$$
>  <molecule>
O=C(c1ccc2ccccc2c1)c1cn(-c2ccccc2)nc1-c1csc(NN=Cc2ccccc2)n1

>  <pIC50>
4.34

$$$$

====

Recorded pIC50, one value per entry.
- Test system: THLE2 normal liver cells
- methodDescription: MTT cytotoxicity assay against THLE2 cells
- Format: cell-based
- condition: Homo sapiens, THLE-2, MTT assay, 48 h, n = 3, read-out: IC50 ± SD THLE2
pIC50: −log10 of the molar value.

>  <compound>
O=C(c1ccc2ccccc2c1)c1cn(-c2ccccc2)nc1-c1csc(N/N=C/c2ccc(OCCCOc3ccc(/C=N/Nc4nc(-c5nn(-c6ccccc6)cc5C(=O)c5ccc6ccccc6c5)cs4)cc3)cc2)n1 [Compound 18b]

>  <pIC50>
≤ 4.30

$$$$
>  <compound>
CC(=NNc1nc(-c2nn(-c3ccccc3)cc2C(=O)c2ccc3ccccc3c2)cs1)c1cc2ccccc2o1

>  <pIC50>
≤ 4.30

$$$$
>  <compound>
COc1ccc(C=NNc2nc(-c3nn(-c4ccccc4)cc3C(=O)c3ccc4ccccc4c3)cs2)cc1

>  <pIC50>
≤ 4.30

$$$$
>  <compound>
O=C(c1ccc2ccccc2c1)c1cn(-c2ccccc2)nc1-c1csc(NN=Cc2ccc([N+](=O)[O-])cc2)n1

>  <pIC50>
≤ 4.30

$$$$
